# SETTINGS: day 32, medium dose; nominal ratio 1×
Is WB conc. factor (lab / field) D 32 Med at least 1? Then Criterion met. If not, Criterion not met.

>  <COMPOUND>
O=C(O)C(F)(F)C(F)(F)C(F)(F)C(F)(F)C(F)(F)C(F)(F)C(F)(F)C(F)(F)C(F)(F)F

>  <LABEL CLASS>
Criterion met

$$$$
>  <COMPOUND>
CCOC(=O)C1=C(COCCN)NC(C)=C(C(=O)OC)C1c1ccccc1Cl (stereo not drawn) [Amlodipine, reference compound]

>  <LABEL CLASS>
Criterion met

$$$$
>  <COMPOUND>
CC[C@H]1OC(=O)[C@H](C)[C@@H](O[C@H]2C[C@@](C)(OC)[C@@H](O)[C@H](C)O2)[C@H](C)[C@@H](O[C@@H]2O[C@H](C)C[C@H](N(C)C)[C@H]2O)[C@](C)(O)C[C@@H](C)CN(C)[C@H](C)[C@@H](O)[C@]1(C)O [Azithromycin, reference compound]

>  <LABEL CLASS>
Criterion met

$$$$
>  <COMPOUND>
O=S(=O)(O)C(F)(F)C(F)(F)C(F)(F)C(F)(F)C(F)(F)C(F)(F)C(F)(F)C(F)(F)F

>  <LABEL CLASS>
Criterion not met

$$$$
>  <COMPOUND>
COc1ccc([C@@H]2Sc3ccccc3N(CCN(C)C)C(=O)[C@@H]2OC(C)=O)cc1 [Diltiazem, reference compound]

>  <LABEL CLASS>
Criterion met

$$$$
>  <COMPOUND>
CNCCC(Oc1ccc(C(F)(F)F)cc1)c1ccccc1 (stereo not drawn) [Fluoxetine, reference compound]

>  <LABEL CLASS>
Criterion not met

$$$$
>  <COMPOUND>
CN(C)CCOC(c1ccccc1)c1ccccc1 [Diphen hydramine, reference compound]

>  <LABEL CLASS>
Criterion not met

$$$$
>  <COMPOUND>
NCCC(Oc1ccc(C(F)(F)F)cc1)c1ccccc1 (stereo not drawn)

>  <LABEL CLASS>
Criterion not met

$$$$

# ---- query compound ----
Prompt: # bool: WB conc. factor (lab / field) D 32 Med of CNCCN1C(=O)[C@H](OC(C)=O)[C@H](c2ccc(OC)cc2)Sc2ccccc21 >= 1
Completion: Criterion met

---

Below, each of the compounds is paired with its reported Whole-body conc D 50 Med value.
# SETTINGS: day 50 (after depuration), medium dose, wet weight; < = reporting limit
Provide only the numeric value, understood in ng/g.

>  <SUBSTANCE SMILES>
O=C(O)C(F)(F)C(F)(F)C(F)(F)C(F)(F)C(F)(F)F

>  <UNITS>
ng/g

>  <Whole-body conc D 50 Med>
0.49

$$$$
>  <SUBSTANCE SMILES>
O=C(O)C(F)(F)C(F)(F)C(F)(F)C(F)(F)C(F)(F)C(F)(F)C(F)(F)C(F)(F)C(F)(F)F

>  <UNITS>
ng/g

>  <Whole-body conc D 50 Med>
2.05

$$$$
>  <SUBSTANCE SMILES>
CNCCN1C(=O)[C@H](OC(C)=O)[C@H](c2ccc(OC)cc2)Sc2ccccc21

>  <UNITS>
ng/g

>  <Whole-body conc D 50 Med>
14.4

$$$$

Prompt: Supply measured Whole-body conc D 50 Med of O=S(=O)(O)C(F)(F)C(F)(F)C(F)(F)C(F)(F)C(F)(F)C(F)(F)C(F)(F)C(F)(F)F in your reply.
Completion: 11.6
